Cited source for all entries: patent US20260097037A1

testedOn: Human GLP-1 receptor stably expressing cells (hGLP-1R/CHO-K1 cells) (Homo sapiens)
Construct: expressed in transfected cells
protocolDetails: Measurement of GLP-1 receptor agonist activity (cAMP assay)
Format: cell-based
measurementSetup: CHO-K1, maximum effect; cAMP with 2 nM human GLP-1 (7-36) = 100%, DMSO only = 0%; read-out: Emax
propertyName: Emax (%)
Answer with a number only, understood to be in %.

Below are worked cases with known answers.
[
  {
    "givenSmiles": "C[C@H]1c2nc(OCc3cc(Cl)cs3)c(C(F)(F)F)cc2CCN1Cc1nc2ccc(C(=O)O)cc2n1C[C@@H]1CCO1",
    "testedOn": "Human GLP-1 receptor stably expressing cells (hGLP-1R/CHO-K1 cells) (Homo sapiens)",
    "Emax [%]": 99.3
  },
  {
    "givenSmiles": "C[C@H]1c2nc(OCc3ccc(OC(F)F)cc3F)c(C#N)cc2CCN1Cc1nc2c(Cl)cc(C(=O)O)cc2n1C[C@@H]1CCO1",
    "testedOn": "Human GLP-1 receptor stably expressing cells (hGLP-1R/CHO-K1 cells) (Homo sapiens)",
    "Emax [%]": 123
  }
]

# evaluate next
I would be grateful if you could share the reported Emax for "COc1cc(C(=O)O)cc2c1nc(CN1CCc3cc(Cl)c(OCc4ccccc4Cl)nc3[C@@H]1C)n2C[C@@H]1CCO1" .
112

###

testedOn: Human GLP-1 receptor stably expressing cells (hGLP-1R/CHO-K1 cells) (Homo sapiens, UniProt P43220)
Construct: expressed in transfected cells
Sequence (P43220 24-463): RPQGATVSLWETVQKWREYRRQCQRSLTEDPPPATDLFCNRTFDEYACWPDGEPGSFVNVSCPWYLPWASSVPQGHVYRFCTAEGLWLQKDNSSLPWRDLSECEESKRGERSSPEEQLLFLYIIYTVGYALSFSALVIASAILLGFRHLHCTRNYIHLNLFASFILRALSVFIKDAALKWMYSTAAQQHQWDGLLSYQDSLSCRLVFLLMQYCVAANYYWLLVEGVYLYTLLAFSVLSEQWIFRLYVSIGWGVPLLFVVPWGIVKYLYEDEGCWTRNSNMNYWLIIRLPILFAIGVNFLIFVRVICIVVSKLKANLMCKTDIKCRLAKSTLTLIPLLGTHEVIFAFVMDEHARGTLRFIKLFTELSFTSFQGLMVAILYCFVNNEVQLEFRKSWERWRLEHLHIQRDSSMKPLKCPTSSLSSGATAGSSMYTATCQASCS
protocolDetails: Measurement of GLP-1 receptor agonist activity (cAMP assay)
Assay type: cell-based
measurementSetup: CHO-K1, maximum effect; cAMP with 2 nM human GLP-1 (7-36) = 100%, DMSO only = 0%; read-out: Emax
Below, each entry is listed with its recorded Emax.
API: value field is a number in %; no unit string.

Suppose we examine the molecule "C[C@H]1c2nc(OCc3ccc(Cl)cc3Cl)c(Cl)cc2CCN1Cc1nc2ccc(C(=O)O)c(F)c2n1C[C@@H]1CCO1" ; what Emax value has been reported?
126

Given the entry "C[C@H]1c2nc(OCc3ccc(Cl)cc3F)c(C(F)(F)F)cc2CCN1Cc1nc2c(-c3cnn(C)c3)cc(C(=O)O)cc2n1C[C@@H]1CCO1" , report its measured Emax.
99.7

Given the entry "COc1cc(C(=O)O)cc2c1nc(CN1CCc3cc(Cl)c(OCc4ccc(Cl)cn4)nc3[C@@H]1C)n2C[C@@H]1CCO1" , report its measured Emax.
104

// query Emax value for entry "C[C@H]1c2nc(OCc3ccccc3Cl)c(Cl)cc2CCN1Cc1nc2ccc(C(=O)O)c(F)c2n1C[C@@H]1CCO1"
113

Tell me the measured Emax of "C[C@H]1c2nc(OCc3ccc(Cl)cc3Cl)c(C(F)F)cc2CCN1Cc1nc2c(F)cc(C(=O)O)cc2n1C[C@@H]1CCO1" , please.
110

Entry under review: "C[C@H]1c2cc(OCc3ccc(F)cc3F)c(C(F)F)cc2CCN1Cc1nc2ccc(C(=O)O)cc2n1C[C@@H]1CCO1" . Reported Emax?
107

###

testedOn: Human GLP-1 receptor stably expressing cells (hGLP-1R/CHO-K1 cells) (Homo sapiens)
protocolDetails: Measurement of GLP-1 receptor agonist activity (cAMP assay)
measurementSetup: increase in cAMP concentration in hGLP-1R/CHO-K1 cells, 37° C. 1 hour
propertyName: pEC50
A value of pEC50 is the negative decimal logarithm of a concentration given in moles per litre.

[
  {
    "givenSmiles": "C[C@H]1c2nc(OCc3cc(F)c(Cl)cc3F)c(C(F)F)cc2CCN1Cc1nc2ccc(C(=O)O)nc2n1C[C@@H]1CCO1",
    "propertyName": "pEC50",
    "reportedResult": 9.33
  }
]

For the compound "C[C@H]1c2nc(OCc3ccc(Cl)cc3F)c(Cl)cc2CCN1Cc1nc2ccc(C(=O)O)nc2n1C[C@@H]1CCO1" , what pEC50 is on record?
9.60

Reported pEC50, compound "COc1cc(C(=O)O)cc2c1nc(CN1CCc3cc(C#N)c(OCc4cc(F)c(Cl)cc4F)nc3[C@@H]1C)n2C[C@@H]1CCO1" : ____
10.53
